Sourced from paper PMC11532403

Assay Details: Phase 1 trial: plasma pharmacokinetics
Format: in vivo
Test Settings: human, 20 mg, Cycle 1 Day 1, 20 mg BID (n = 1), read-out: Cmax mean
Readout: Cmax (ng/mL)
Number in ng/mL, nothing else.

Please fill in: Cmax reported for COc1ccc(CN2C3CC2CN(c2ccc(-c4cc(N5CC(C)(O)C5)cn5ncc(C#N)c45)cn2)C3)cn1 [SY-5007] = 214

* * *

Assay Details: Pharmacokinetics in rats
Type: in vivo, SD rats
Test Settings: both sexes, SD, rat, plasma, po; gavage 5-50 mg/kg; read-out: MRTINF_obs
Readout: MRT inf

Please fill in: MRT inf reported for "COc1ccc(CN2C3CC2CN(c2ccc(-c4cc(N5CC(C)(O)C5)cn5ncc(C#N)c45)cn2)C3)cn1" = 4.92 to 6.96 h

* * *

Assay Details: Phase 1 trial: plasma pharmacokinetics
Assay type: in vivo
Test Settings: human, oral, 80 mg, Cycle 1 Day 28, 80 mg BID (n = 3), read-out: MRTINF_obs mean
Readout: MRT inf (h)
Number in h, nothing else.

Please fill in: MRT inf reported for COc1ccc(CN2C3CC2CN(c2ccc(-c4cc(N5CC(C)(O)C5)cn5ncc(C#N)c45)cn2)C3)cn1 [SY-5007] = 8.2

* * *

Assay Details: Phase 1 trial: plasma pharmacokinetics
Type: in vivo
Test Settings: human, oral, 80 mg, Cycle 1 Day 28, 80 mg BID (n = 3), read-out: AUC0–12 h mean
Readout: AUC(0-t) (ng·h/mL)
Number in ng·h/mL, nothing else.

Please fill in: AUC(0-t) reported for "COc1ccc(CN2C3CC2CN(c2ccc(-c4cc(N5CC(C)(O)C5)cn5ncc(C#N)c45)cn2)C3)cn1" = 12600

* * *

Assay Details: Acute toxicity, single oral gavage
Type: in vivo
Test Settings: male, SD, rat, in vivo, oral; males; read-out: MTD, single dose
Readout: MTD (mg/kg)
Number in mg/kg, nothing else.

Please fill in: MTD reported for "COc1ccc(CN2C3CC2CN(c2ccc(-c4cc(N5CC(C)(O)C5)cn5ncc(C#N)c45)cn2)C3)cn1" = 250

* * *

Assay Details: Phase 1 trial: plasma pharmacokinetics
Type: in vivo
Test Settings: human, 160 mg, Cycle 1 Day 28, 160 mg BID (n = 15), read-out: Tmax mean
Readout: Tmax (h)
Number in h, nothing else.

Please fill in: Tmax reported for "COc1ccc(CN2C3CC2CN(c2ccc(-c4cc(N5CC(C)(O)C5)cn5ncc(C#N)c45)cn2)C3)cn1" = 2

* * *

Assay Details: Phase 1 trial: plasma pharmacokinetics
Format: in vivo
Test Settings: human, oral, 20 mg, Cycle 1 Day 28, 20 mg QD (n = 1), read-out: T1/2 mean (converted)
Readout: half-life (h)
Number in h, nothing else.

Please fill in: half-life reported for "COc1ccc(CN2C3CC2CN(c2ccc(-c4cc(N5CC(C)(O)C5)cn5ncc(C#N)c45)cn2)C3)cn1" = 6

* * *

Assay Details: Phase 1 trial: plasma pharmacokinetics
Type: in vivo
Test Settings: human, 120 mg, Cycle 1 Day 1, 120 mg BID (n = 3), read-out: AUC0–12 h mean
Readout: AUC(0-t)

Please fill in: AUC(0-t) reported for "COc1ccc(CN2C3CC2CN(c2ccc(-c4cc(N5CC(C)(O)C5)cn5ncc(C#N)c45)cn2)C3)cn1" = 9270 ng·h/mL
